Form field: Cholesterol-free (one value per entry).
# System: NCI-H292 lung cancer cells
# method description: FDA drug screening, complete media vs cholesterol-free media without statin (TABLE 1)
# Format: cell-based, human
# measurement setup: NCI-H292 cells, cholesterol-free media without statin
Counter-ions that a name gives are not always drawn.
parameter measured: Cholesterol-free

• C[C@H]1[C@H](OC(=O)CCC(=O)O)O[C@@H]2O[C@@]3(C)CC[C@H]4[C@H](C)CC[C@@H]1[C@@]24OO3 [Artesunate] = 0.9732
• C=C1C[C@H]2[C@@H]3CCC4=CC(=O)CC[C@@H]4[C@H]3CC[C@]2(C)[C@@]1(OC(C)=O)C(C)=O = 1.481
• COc1ccccc1OCC(O)CN1CCN(CC(=O)Nc2c(C)cccc2C)CC1 (stereo not drawn) [Ranolazine (dihydrochloride)] = 1.148
• COc1cc2c(cc1OC)[C@@H]1Cc3ccc(OC)c(OC)c3CN1CC2 = 1.07
• CC(C)=CCC[C@](C)(O)[C@H]1CC[C@]2(C)[C@@H]1[C@H](O)C[C@@H]1[C@@]3(C)CC[C@H](O[C@@H]4O[C@H](CO)[C@@H](O)[C@H](O)[C@H]4O[C@@H]4O[C@H](CO)[C@@H](O)[C@H](O)[C@H]4O)C(C)(C)[C@@H]3CC[C@]12C [20(S)-Ginsenoside Rg3] = 1.062
• CN1CCC[C@@H]1Cc1c[nH]c2ccc(CCS(=O)(=O)c3ccccc3)cc12 [Eletriptan (hydrobromide)] = 1.406
• O=c1cc(-c2ccccc2)oc2cc(O)c(O)c(O)c12 = 1.261
• CC(C)COCC(CN(Cc1ccccc1)c1ccccc1)N1CCCC1 (stereo not drawn) [Bepridil (hydrochloride hydrate)] = 1.151
• O=NN(CCCl)C(=O)NCCCl = 0.9766
• Cc1cc(NS(=O)(=O)c2ccc(N)cc2)no1 = 1.301
• Cc1ccc(C(=O)c2ccc(CC(=O)O)n2C)cc1 = 0.9799
• O=C(O)c1cc(=O)c2ccccc2o1 = 1.221
• CCOC(=O)C1=C(C)NC(C)=C(C(=O)OC)C1c1cccc(Cl)c1Cl (stereo not drawn) = 1.202
• N[C@@H]1CN(c2c(F)cc3c(=O)c(C(=O)O)cn([C@@H]4C[C@@H]4F)c3c2Cl)CC12CC2.O [Sitafloxacin (hydrate)] = 1.147
• C[C@H]1C[C@@H]2[C@H]([C@@H](O)C[C@@]3(C)[C@H]2CC[C@]3(O)C(=O)CO)[C@@]2(C)C=CC(=O)C=C12 = 0.8356
• COc1ccc(CCN(C)CCC[C@@](C#N)(c2ccc(OC)c(OC)c2)C(C)C)cc1OC.Cl [(S)-Verapamil (hydrochloride)] = 1.169
• CCCCC(CC)COC(=O)CC(C(=O)OCC(CC)CCCC)S(=O)(=O)O (stereo not drawn) [Docusate (Sodium)] = 1.285
• Nc1nc2ccc(OC(F)(F)F)cc2s1 [Riluzole hydrochloride] = 1.152
• Cc1cc2ncc(C(=O)NCC(C)(C)NCC(=O)N3CCC[C@H]3C#N)cn2n1 = 1.234
• CO/N=C(\C(=O)N[C@@H]1C(=O)N2C(C(=O)O)=C(CSc3nnnn3C)CS[C@H]12)c1csc(N)n1 [Cefmenoxime (hydrochloride)] = 1.225
• C=C1CCC2CC1C2(C)C (stereo not drawn) = 0.968
• CN(C)CC(c1ccc(O)cc1)C1(O)CCCCC1 (stereo not drawn) = 1.158
• CC(=O)OCC(=O)[C@@]1(O)CC[C@H]2[C@@H]3CCC4=CC(=O)CC[C@]4(C)[C@@]3(F)[C@@H](O)C[C@@]21C [Fludrocortisone acetate] = 0.7353
• CCOC(=O)N1CCC(=C2c3ccc(Cl)cc3CCc3cccnc32)CC1 = 1.122
• CN1C(=O)OC(C)(C)C1=O = 1.085
• O=S(=O)(O)CCS = 1.145
• CC(C)OC(=O)OCOP(=O)(CO[C@H](C)Cn1cnc2c(N)ncnc21)OCOC(=O)OC(C)C.O=C(O)/C=C/C(=O)O [Tenofovir (Disoproxil Fumarate)] = 1.163
• CCOC(=O)CCC(=O)O[C@H]1[C@H](O[C@@H]2[C@@H](C)[C@H](O[C@H]3C[C@@](C)(OC)[C@@H](O)[C@H](C)O3)[C@@H](C)C(=O)O[C@H](CC)[C@@](C)(O)[C@H](O)[C@@H](C)C(=O)[C@H](C)C[C@@]2(C)O)O[C@H](C)C[C@@H]1N(C)C [Erythromycin Ethylsuccinate] = 1.248
• CS(=O)(=O)Nc1cc2occ(NC=O)c(=O)c2cc1Oc1ccccc1 = 1.252
• O=C1CC2(CCCC2)CC(=O)N1CCCCN1CCN(c2ncccn2)CC1 [Buspirone (hydrochloride)] = 1.286

----------
Form field: Complete Media (one value per entry).
# System: NCI-H292 lung cancer cells
# method description: FDA drug screening, complete media vs cholesterol-free media with simvastatin (TABLE 2)
# Type: cell-based, human
# measurement setup: NCI-H292 cells, drug in complete media
Where a name gives a salt, the structure may show the parent alone.
parameter measured: Complete Media

* CCN(CC)CCOc1ccc2c(c1)C(=O)c1cc(OCCN(CC)CC)ccc1-2 [Tilorone (dihydrochloride)] | 0.8748
* CN(C)CCOC(=O)C(c1ccccc1)C1(O)CCCC1 (centres unmarked) [Cyclopentolate (hydrochloride)] | 0.8727
* CC1(C)[C@@H](O[C@H]2O[C@H](C(=O)[O-])[C@@H](O)[C@H](O)[C@H]2O[C@@H]2O[C@H](C(=O)[O-])[C@@H](O)[C@H](O)[C@H]2O)CC[C@]2(C)[C@H]3C(=O)C=C4[C@@H]5C[C@@](C)(C(=O)O)CC[C@]5(C)CC[C@@]4(C)[C@]3(C)CC[C@@H]12.[K+].[K+] [Dipotassium glycyrrhizinate] | 0.9331
* CC1(C)S[C@@H]2[C@H](NC(=O)Cc3ccccc3)C(=O)N2[C@H]1C(=O)O.CC1(C)S[C@@H]2[C@H](NC(=O)Cc3ccccc3)C(=O)N2[C@H]1C(=O)O.O.O.O.O.c1ccc(CNCCNCc2ccccc2)cc1 [Penicillin G benzathine (tetrahydrate)] | 1.126
* N[C@@H](CO)C(=O)O [L-Serine] | 0.9461

----------
# System: NCI-H292 lung cancer cells
# method description: FDA drug screening, complete media vs cholesterol-free media without statin (TABLE 1)
# Assay type: cell-based, human
# measurement setup: Complete minus Cholesterol-free; […]
Lab note: anything with Difference at or over -0.1 counts as rule met; the rest go in rule not met.

• COc1cc([C@@H]2c3cc4c(cc3[C@H](O)[C@H]3COC(=O)[C@H]23)OCO4)cc(OC)c1OC [Podofilox] = rule met
• COc1cc2c(cc1OC)-c1cc3ccc(OC)c(OC)c3c[n+]1CC2.[Cl-] [Palmatine (chloride)] = rule not met
• CC[C@H]1[C@@H]2C[C@H]3[C@@H]4N(C)c5ccccc5[C@]45C[C@@H]([C@H]2[C@H]5O)N3[C@@H]1O [Ajmaline] = rule not met
• CCCOc1ccc2c(c1)CC[C@@H]1[C@@H]2CC[C@]2(C)[C@@H](OC)CC[C@@H]12 [Promestriene] = rule not met
• CC(=O)O.CN1C(=O)C[C@@H](C(=O)N[C@@H](Cc2cnc[nH]2)C(=O)N2CCC[C@H]2C(N)=O)NC1=O [Taltirelin (acetate)] = rule not met
• C=CC[N+]1([C@H]2C[C@H]3[C@@H]4CC[C@H]5C[C@H](OC(C)=O)[C@@H](N6CCCCC6)C[C@]5(C)[C@H]4CC[C@]3(C)[C@H]2OC(=O)CC)CCCCC1 [Rapacuronium bromide] = rule met

----------
# Test system: NCI-H292 lung cancer cells
# method description: FDA drug screening, complete media vs cholesterol-free media without statin (TABLE 1)
# Assay type: cell-based, human
# measurement setup: NCI-H292 cells, FDA drug library screen, cholesterol-free media without statin
Counter-ions that a name gives are not always drawn.
parameter measured: Cholesterol-free

- CC[C@H](Nc1ncnc2[nH]cnc12)c1nc2cccc(F)c2c(=O)n1-c1ccccc1: 1.096
- C[n+]1ccccc1C=NO.[I-] [Pralidoxime (iodide)]: 1.049
- O=C(O)CCc1nc(-c2ccccc2)c(-c2ccccc2)o1: 1.125
- CCCCN(CCCC)C(=O)CN1C[C@H](c2ccc3c(c2)OCO3)[C@@H](C(=O)O)[C@@H]1c1ccc(OC)cc1 [Atrasentan (hydrochloride)]: 1.198
- NC(=O)NC1NC(=O)NC1=O (stereo not shown): 0.5704
- C[N+](C)(C)CCOP(=O)([O-])OC[C@H](O)CO: 0.9108
- CCN(CC)CC#CCOC(=O)C(O)(c1ccccc1)C1CCCCC1 (stereo not shown): 1.075
- CCCCC[C@](C)(O)/C=C/[C@@H]1[C@@H](C/C=C\CCCC(=O)O)[C@@H](O)C[C@H]1O.NC(CO)(CO)CO: 1.222
- CC(C)(N)CNC(=O)C[C@H]1CC[C@]2(CC1)OO[C@]1(O2)C2CC3CC(C2)CC1C3: 1.167
- C[C@@H]1C/C=C/C=C/C=C/C=C/[C@H](O[C@@H]2O[C@H](C)[C@@H](O)[C@H](N)[C@@H]2O)C[C@@H]2O[C@](O)(C[C@@H](O)C[C@H]3O[C@@H]3/C=C/C(=O)O1)C[C@H](O)[C@H]2C(=O)O: 1.061
- N#Cc1cc(NC(=O)C(=O)O)c(Cl)c(NC(=O)C(=O)O)c1.NC(CO)(CO)CO.NC(CO)(CO)CO [Lodoxamide (tromethamine)]: 0.8848
- COc1ccc2[nH]c([S+]([O-])Cc3ncc(C)c(OC)c3C)nc2c1 (stereo not shown): 0.995
- N[C@@H](Cc1c[nH]c2ccc(O)cc12)C(=O)O [L-5-Hydroxytryptophan]: 1.028
- C[C@@](Cc1ccc(O)c(O)c1)(NN)C(=O)O: 1.15
- NCCC(O)(P(=O)([O-])O)P(=O)([O-])O.O.O.O.O.O.[Na+].[Na+] [Pamidronate (disodium pentahydrate)]: 1.305
- Nc1nnc(-c2cccc(Cl)c2Cl)c(N)n1: 1.043
- COc1ccc2c(c1O)-c1c(OC)c(OC)cc3c1[C@H](C2)N(C)CC3: 1.162
- CC(C)(C)c1nc(-c2cccc(NS(=O)(=O)c3c(F)cccc3F)c2F)c(-c2ccnc(N)n2)s1: 0.7255
- O=C(Nc1nc(-c2cc(Cl)cs2)c(N2CCN(C3CCCCC3)CC2)s1)c1cnc(N2CCC(C(=O)O)CC2)c(Cl)c1 [Avatrombopag (hydrochloride)]: 0.9128
- COc1cc2ncnc(Nc3ccc(F)c(Cl)c3)c2cc1NC(=O)/C=C/CN1CCCCC1: 0.3597
- Cc1c(C(=O)Nc2ccc(S(C)(=O)=O)cc2)cn(CCO)c1-c1ccccc1C(F)(F)F: 1.29
- C[C@H](O)C(=O)Nc1c(I)c(C(=O)NC(CO)CO)c(I)c(C(=O)NC(CO)CO)c1I: 1.136
- CN1CC(O)C2=C/C(=N/NC(N)=O)C(=O)C=C21 (stereo not shown): 1.112
- Clc1cccc(Cl)c1N=C1NCCN1 [Clonidine (hydrochloride)]: 0.9351
- C[S+](CC[C@H](N)C(=O)[O-])C[C@H]1O[C@@H](n2cnc3c(N)ncnc32)[C@H](O)[C@@H]1O.Cc1ccc(S(=O)(=O)O)cc1.O=S(=O)(O)O.O=S(=O)(O)O (stereo partly shown): 1.112
